Data provenance is patent US20260193366A1.

Assignment: determine reported KD Relative to Dupilumab for the given binders.
tgt: T1, cynomolgus monkey IL-4Rα (cynomolgus monkey, UniProt P24394 26-231 (human entry), limits assumed)
T1 construct: also called Cyno IL-4Rα; cyIL-4Rα
T1 chain: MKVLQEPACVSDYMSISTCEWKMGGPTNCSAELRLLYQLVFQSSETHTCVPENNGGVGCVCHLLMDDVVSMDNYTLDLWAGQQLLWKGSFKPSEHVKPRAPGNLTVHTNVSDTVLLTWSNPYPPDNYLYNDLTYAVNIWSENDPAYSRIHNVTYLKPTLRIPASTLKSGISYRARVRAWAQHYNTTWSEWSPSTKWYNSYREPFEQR
protocol notes: SPR, Carterra LSA;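 also: antibodies captured on an anti-human Fc sensor chip, antigen injected at several concentrations, association and dissociation rates fitted with a 1:1 Langmuir model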
Please reply with the value in numeric form only.

query: What value of measured KD Relative to Dupilumab is listed for Construct 3 (mAb412) (antibody, IgG4, V domains shown, VH/VL only) VH: EVQLVESGGGLEQPGGSLRLSCAGSGFTFRDFAMTWVRQAPGKGLEWVSSISGSGSSTYYADSVKGRFTISRDNSKNTLYLQMNSLRAEDTAVYYCAKDRLSITVRPRYYGLDVWGQGTTVTVSS VL: DIVMTQSPLSLPVTPGEPASISCRSSQSLLYSIGYNYVDWYLQKSGQSPQLLIYLGNKRASGVPDRFSGSGSGTDFTLKISRVEAEDVGFYYCMQALTTPYTFGQGTKLEIK ?
result: 0.14

query: What value of measured KD Relative to Dupilumab is listed for Construct 10 (mAb419) (antibody, IgG4, V domains shown, VH/VL only) VH: EVQLVESGGGLEQPGGSLRLSCAGSGFTFRDFAMTWVRQAPGKGLEWVSSISGDGSNTYYADSVKGRFTISRDNSKNTLYLQMNSLRAEDTAVYYCAKDRLSKTIRPRYYGLDVWGQGTTVTVSS VL: DIVMTQSPLSLPVTPGEPASISCRSSQSLLYSIGYNYVDWYLQKSGQSPQLLIYLGNKRASGVPDRFSGSGSGTDFTLKISRVEAEDVGFYYCMQALGSPYTFGQGTKLEIK ?
result: 0.18

query: What value of measured KD Relative to Dupilumab is listed for Construct 12 (mAb421) (antibody, IgG4, V domains shown, VH/VL only) VH: EVQLVESGGGLEQPGGSLRLSCAGSGFTFRDFAMTWVRQAPGKGLEWVSSISGSGGNIYYADSVKGRFTISRDNSKNTLYLQMNSLRAEDTAVYYCAKDRLSKTIRPRYYGLDVWGQGTTVTVSS VL: DIVMTQSPLSLPVTPGEPASISCRSSQSVLYSIGYNYVDWYLQKSGQSPQLLIYLGNKRASGVPDRFSGSGSGTDFTLKISRVEAEDVGFYYCMQSLTSPYTFGQGTKLEIK ?
result: 0.02

query: What value of measured KD Relative to Dupilumab is listed for Construct 38 (mAb471) (antibody, IgG4, V domains shown, VH/VL only) VH: EVQLVESGGGLEQPGGSLRLSCAGSGFTFRDFAMTWVRQAPGKGLEWVSSISGSGGNIYYADSVKGRFTISRDNSKNTLYLQMNSLRAEDTAVYYCAKDRLSVTVRPRYYGLDVWGQGTTVTVSS VL: DIVMTQSPLSLPVTPGEPASISCRSSQSLLYSIGKNYVDWYLQKSGQSPQLLIYEGNKRASGVPDRFSGSGSGTDFTLKISRVEAEDVGFYYCMQSLTSPYTFGQGTKLEIK ?
result: 0.4

query: What value of measured KD Relative to Dupilumab is listed for Construct 46 (mAb501) (antibody, IgG4, V domains shown, VH/VL only) VH: EVQLVESGGGLEQPGGSLRLSCAGSGFTFRDSAMTWVRQAPGKGLEWVSSISGSGDGTYYADSVKGRFTISRDNSKNTLYLQMNSLRAEDTAVYYCAKDRLSIYIRPRYYGLDVWGQGTTVTVSS VL: DIVMTQSPLSLPVTPGEPASISCTSSQSLLYSIGYNYVDWYLQKSGQSPQLLIYLGNKRASGVPDRFSGSGSGTDFTLKISRVEAEDVGFYYCMQALQTPYTFGQGTKLEIK ?
result: 0.36
